Tested on: PC-3 prostate
Assay: NCI-60 one-dose screen, 48 h (100 = growth as untreated, 0 = no growth, -100 = all killed)
Settings: 10 µM unless noted
About 83,000 compounds went through this panel and 20% of them were active in at least one assay; those are over-represented in the sample as a whole.
readout: growth (%)

molecule=O=C(O)/C(Br)=C/c1c[nH]c2ccc(Br)cc12 measured_on="PC-3 prostate" recorded_measurement=123
molecule=O=C1/C(=C/c2ccc(Cl)cc2)CCC/C1=C\c1ccc(Cl)cc1 measured_on="PC-3 prostate" recorded_measurement=90.8
molecule=Cc1ccc(NC(=O)CCl)cc1Cl measured_on="PC-3 prostate" recorded_measurement=86.8
molecule=Brc1ccc(-c2nc3ccccc3s2)cc1 measured_on="PC-3 prostate" recorded_measurement=83.6
molecule=O=c1c(N=Nc2nccs2)c(-c2ccccc2)[nH]n1-c1nc(-c2ccccc2)cs1 measured_on="PC-3 prostate" recorded_measurement=32.8
molecule="Cc1c([C@H](C(Cl)Cl)[C@H](O)[C@H]2C[C@H](C)C(=O)O2)ccc2c1C(=O)[C@H]1[C@H]2C[C@@H](Br)[C@@]23O[C@@H](CO[C@H]2O)CC13C (some centres not stated)" measured_on="PC-3 prostate" recorded_measurement=30.4
molecule=N=c1c2c(=O)n3c(nc2nc2sc4ccc(Cl)cc4n12)-c1ccccc1Sc1ccccc1-3 measured_on="PC-3 prostate" recorded_measurement=11.2
molecule=CCCCCCCCc1ccc(CCC(N)(CO)CO)cc1 measured_on="PC-3 prostate" recorded_measurement=37.1
molecule="COC(=O)C(C(=O)OC)C(Br)C(Br)C(Br)c1ccccc1 (configuration not stated)" measured_on="PC-3 prostate" recorded_measurement=101
molecule=O=C(NCCCl)Nc1nccnc1OCc1ccc(F)cc1 measured_on="PC-3 prostate" recorded_measurement=96.5
molecule=CC/C(=N\Nc1nc2ccccc2n1C)c1ccccn1 measured_on="PC-3 prostate" recorded_measurement=26.5
molecule=CCC(C)(C)c1ccc(OCCCCCCN2CCN(c3ccc(C)c(Cl)c3)CC2)cc1 measured_on="PC-3 prostate" recorded_measurement=78.1

----------
Tested on: PC-3 prostate
Experiment: NCI-60 one-dose screen, 48 h
Conditions: 10 µM unless noted
This is part of a sample that, as a whole, favours compounds with a hit. Of some 83,000 tested, about 20% had one in any assay. The source made the active and inactive calls. Rule for the calls: active = growth percent below 10; inactive = the rest.
Outcomes: yes (1) for active, no (0) for inactive

compound=Cc1ccc2c(c1)C(=O)CCS2 measured_on="PC-3 prostate" class_assignment="no (0)"
compound=CC(=O)N1CCN(CCNC(=O)n2cc(-c3ccncc3)c(-c3cc(O)cc(Cl)c3)n2)CC1 measured_on="PC-3 prostate" class_assignment="no (0)"
compound=COc1ccc(-c2cc(C#N)c(NNC(C)=O)[nH]2)cc1 measured_on="PC-3 prostate" class_assignment="no (0)"
compound="Cc1ccc(C(=O)C(Br)C(Br)c2ccccc2)cc1 (centres undefined)" measured_on="PC-3 prostate" class_assignment="no (0)"
compound=C/C(=N\Nc1ccc(Cl)cn1)c1ccc2ccccc2n1 measured_on="PC-3 prostate" class_assignment="no (0)"
compound=COc1cc(OC)c(/C=C/c2ccc3ccccc3[n+]2C)c(OC)c1 measured_on="PC-3 prostate" class_assignment="no (0)"
compound=CC(C)(C)c1ccc(OCCOC(=O)CBr)cc1 measured_on="PC-3 prostate" class_assignment="no (0)"
compound=COC(=O)[C@H](Cc1cn(C)cn1)NC(=O)[C@H](CC(=O)OCc1ccccc1)NC(=O)Nc1cc(C(F)(F)F)cc(C(F)(F)F)c1 measured_on="PC-3 prostate" class_assignment="yes (1)"
compound="COC(=O)C(C)[C@H]1CC[C@@H]2[C@]1(C)CC=C1[C@]23C=C[C@]2(C[C@@H](OC(C)=O)CC[C@]12C)C(C(=O)OC)C3C(=O)OC (some centres undefined)" measured_on="PC-3 prostate" class_assignment="no (0)"
compound=COc1cc2c(c3c1c(=O)c1cccc(F)c1n3C)C=CC(C)(C)O2 measured_on="PC-3 prostate" class_assignment="no (0)"
compound=C=CCSc1nnc(COc2ccc3c(C)c(Cc4ccccc4)c(=O)oc3c2C)o1 measured_on="PC-3 prostate" class_assignment="no (0)"
compound="Nc1nc2c(c3cnccc13)C(c1ccc(Cl)c(Cl)c1)Cc1cnccc1-2 (centres undefined)" measured_on="PC-3 prostate" class_assignment="yes (1)"
compound=c1cc[c]([Bi]([c]2ccccc2)[c]2ccccc2)cc1 measured_on="PC-3 prostate" class_assignment="no (0)"
compound=COc1cc(OC)c(NC(=O)n2ncc3cc(Nc4ncnc5ccccc45)ccc32)cc1Cl measured_on="PC-3 prostate" class_assignment="no (0)"
compound=CSC1=Nc2c(c(C)c(-c3ccccc3)n2CCCCl)C2=NC(=O)CN12 measured_on="PC-3 prostate" class_assignment="no (0)"
compound=COC(=O)[C@H](Cc1cn(C)cn1)NC(=O)[C@@H](NC(=O)Nc1cc(C(F)(F)F)cc(C(F)(F)F)c1)C(C)(C)C measured_on="PC-3 prostate" class_assignment="yes (1)"
compound=OCCN1CCCN(CCCN2c3ccccc3Sc3ccc(C(F)(F)F)cc32)CC1 measured_on="PC-3 prostate" class_assignment="no (0)"
compound=COc1ccc2oc(=O)cc(CN3C(=O)S/C(=C\c4ccc(Cl)cc4)C3=O)c2c1 measured_on="PC-3 prostate" class_assignment="no (0)"
compound="O=C(OCC1CC2(Cl)C(Cl)=C(Cl)C1(Cl)C2(Cl)Cl)C1C(C(=O)OCC2CC3(Cl)C(Cl)=C(Cl)C2(Cl)C3(Cl)Cl)C2(Cl)C(Cl)=C(Cl)C1(Cl)C2(Cl)Cl (centres undefined)" measured_on="PC-3 prostate" class_assignment="no (0)"
